Hello, the source for this data is patent US20200024330A1, in case you need it.

Hi there, I'd appreciate the recorded Median IC50 against viruses neutralized with an IC50 <50 µg/ml for every entry that follows.
systemUnderTest: Env of the clade C HIV-1 pseudoviruses of the cross-clade 162-pseudovirus panel (n = 27)
methodSummary: cell-based or functional assay
Answers are plain numbers, in µg/mL.

binder: PGT-131 (antibody, V domains shown) VH: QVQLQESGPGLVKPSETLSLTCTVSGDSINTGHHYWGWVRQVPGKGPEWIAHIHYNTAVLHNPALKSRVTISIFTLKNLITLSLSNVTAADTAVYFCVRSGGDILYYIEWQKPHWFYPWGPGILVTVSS VL: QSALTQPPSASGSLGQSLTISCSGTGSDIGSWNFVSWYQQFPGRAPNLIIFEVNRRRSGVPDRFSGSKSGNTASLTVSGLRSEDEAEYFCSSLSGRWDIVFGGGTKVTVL
experimentalValue: 0.78
--
binder: PGT-135 (antibody, V domains shown) VH: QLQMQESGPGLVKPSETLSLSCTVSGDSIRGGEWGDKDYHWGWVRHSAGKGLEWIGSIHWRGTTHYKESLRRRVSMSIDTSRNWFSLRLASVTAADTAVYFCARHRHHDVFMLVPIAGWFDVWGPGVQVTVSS VL: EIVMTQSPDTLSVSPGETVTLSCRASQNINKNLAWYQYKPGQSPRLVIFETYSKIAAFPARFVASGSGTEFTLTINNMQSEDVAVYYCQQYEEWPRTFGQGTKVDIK
experimentalValue: 0.05
--
binder: PGT-126 (antibody, V domains shown) VH: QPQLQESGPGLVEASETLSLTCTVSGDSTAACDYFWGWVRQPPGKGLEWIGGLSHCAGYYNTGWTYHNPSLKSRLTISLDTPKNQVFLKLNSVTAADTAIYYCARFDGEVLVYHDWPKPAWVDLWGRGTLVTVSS VL: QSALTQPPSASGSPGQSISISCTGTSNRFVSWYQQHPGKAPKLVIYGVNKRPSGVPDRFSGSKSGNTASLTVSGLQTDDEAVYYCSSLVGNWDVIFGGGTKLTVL
experimentalValue: 0.18

Asked: Determine from records and report Median IC50 against viruses neutralized with an IC50 <50 µg/ml for PGT-136 (antibody, V domains shown) VH: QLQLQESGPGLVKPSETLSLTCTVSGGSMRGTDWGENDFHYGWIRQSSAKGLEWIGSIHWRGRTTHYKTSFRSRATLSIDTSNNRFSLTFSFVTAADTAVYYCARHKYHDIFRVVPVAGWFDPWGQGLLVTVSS VL: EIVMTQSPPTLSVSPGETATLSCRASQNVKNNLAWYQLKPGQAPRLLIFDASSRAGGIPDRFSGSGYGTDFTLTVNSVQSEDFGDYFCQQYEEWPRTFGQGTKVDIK
Given back: 7.52
